Target: T1, cynomolgus monkey Protein S (cynomolgus monkey)
T1 construct: also called cyno Protein S
Test: BLI Octet; antibody on anti-human Fc probe; Protein S 7.81-500 nM; 4 mM CaCl2
OBSERVABLE: kon (M⁻¹ s⁻¹)
Give just the number in M⁻¹ s⁻¹; leave the unit off.

1. Antibody 30 (antibody, V domains shown, Same variable regions as Antibody 36) VH: EVQLVESGGGLVKPGGSLRLSCAASGFTFSSYNMNWVRQAPGRGLDWVSSISSSSSYIYYADSVKGRFTISRDNAKNSLYLQMNTLRAEDTAVYYCARDEEWELLTGFDYWGQGTLVTVSS VL: DIQMTQSPSSLSASVGDRVTITCRASQGINNYLAWFQQKPGKAPKSLIYAASNLQSGVPLKFSGSGSGTDFTLTISSLQPEDFATYYCQQYNSYPITFGQGTRLEIK
35000

Which kon value belongs to Antibody 39 (antibody, V domains shown, Same variable regions as Antibody 40) VH: EVQLVESGGGLVQPGGSLRLSCAASGFTFSSYSMNWVRQAPGKGLEWVAYISSSTRTIFYADSVKGRFTISRDNAKNSLYLQMNSLRDEDTAFYYCARERSAFDYWGQGTLVTVSS VL: SYVLTQPPSVSVAPGQTARITCGGDNIGGKSVHWYQQKPGQAPVMVVYDDSDRPSGIPERFAGSNSGNTATLAISRVEAGDEADYYCQVWEITSDHPAFGGGTRLTVL ? 191000
